# test description: inhibition of PAO1 biofilm formation – strain PAO1, LB-PBS medium, absorbance 600 nm, primary screen (AID 1176); note: test concentration not given here
# recorded conditions: P. aeruginosa PAO1 growth/biofilm, A600, 12 h; higher = more signal
Items are presented alongside their recorded z-score.
I only need the number, thanks.

Reference set, count: 3
CC(C)C(CO)N1C(=O)[C@@H]2[C@H]3C(=O)OCC=C[C@H]3OC23C=CCN(c2ccc4ccccc4c2)C(=O)[C@@H]13 (stereo partly drawn): -0.497
CN(C)CCCCNC(=O)[C@@H]1C[C@@H]2C(=O)N[C@@H](CCCCN)C(=O)N2[C@@H]1c1cccc(OCCO)c1: 0.836
CC1CC/C=C\[C@H]2OC34C=CCN(c5ccc6ccccc6c5)C(=O)[C@H]3N(CCCCCO)C(=O)[C@@H]4C2C(=O)O1 (stereo partly drawn): -0.484

Input: Entry `[N-]=[N+]=NCc1ccccc1C[C@]1(C(=O)NCCN2CCOCC2)N=C(c2ccc(OCCCO)cc2)O[C@H]1c1ccccc1CN=[N+]=[N-]` : reported z-score = ?
Output: 0.428

Input: Another compound to look at: `Cc1ccc(S[C@]2(C(=O)NCCCN(C)C)CC(=O)N(Cc3ccccc3)[C@@H]2c2ccc(CO)cc2)cc1`
Output: 0.317

Input: Consider next the compound COc1cc2c(cc1O)C(c1ccc(CN3CCCC3)cc1)N(Cc1sc3ccccc3c1Cl)CC2 (stereo not drawn) in the same way.
Output: 0.0619

Input: Can you check `O=c1cccc(-c2cccc3ccccc23)o1` next?
Output: 0.794

Input: Try this compound next: `Cc1ccc(N2C(=O)c3ccccc3[C@@H](C(=O)NC(C)C)[C@@H]2c2ccc(CO)cc2)nc1`
Output: 0.69
